Target: T1, Pdr1p DBD (Saccharomyces cerevisiae, UniProt P12383 1-207)
T1 sequence: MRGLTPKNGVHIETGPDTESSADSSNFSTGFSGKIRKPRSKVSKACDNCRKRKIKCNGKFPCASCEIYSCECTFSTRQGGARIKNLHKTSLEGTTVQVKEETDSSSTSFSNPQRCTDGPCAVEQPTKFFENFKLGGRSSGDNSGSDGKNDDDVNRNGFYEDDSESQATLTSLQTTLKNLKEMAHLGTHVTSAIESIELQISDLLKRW
Assay: fluorescence polarization
MEASUREMENT_NAME: pKd
The scale used: pKd is minus the common logarithm of the concentration in molar units.

Provide one value: measured pKd of PBM half site 18mer (dsDNA) DNA 1: AAAAGTTCCGGAACAACC DNA 2: GGTTGTTCCGGAACTTTT
6.64

Source of measurements: paper doi:10.1101/2023.08.11.553033
